- tgt: Progesterone receptor (Homo sapiens, UniProt P06401)
- Sequence (P06401 whole entry): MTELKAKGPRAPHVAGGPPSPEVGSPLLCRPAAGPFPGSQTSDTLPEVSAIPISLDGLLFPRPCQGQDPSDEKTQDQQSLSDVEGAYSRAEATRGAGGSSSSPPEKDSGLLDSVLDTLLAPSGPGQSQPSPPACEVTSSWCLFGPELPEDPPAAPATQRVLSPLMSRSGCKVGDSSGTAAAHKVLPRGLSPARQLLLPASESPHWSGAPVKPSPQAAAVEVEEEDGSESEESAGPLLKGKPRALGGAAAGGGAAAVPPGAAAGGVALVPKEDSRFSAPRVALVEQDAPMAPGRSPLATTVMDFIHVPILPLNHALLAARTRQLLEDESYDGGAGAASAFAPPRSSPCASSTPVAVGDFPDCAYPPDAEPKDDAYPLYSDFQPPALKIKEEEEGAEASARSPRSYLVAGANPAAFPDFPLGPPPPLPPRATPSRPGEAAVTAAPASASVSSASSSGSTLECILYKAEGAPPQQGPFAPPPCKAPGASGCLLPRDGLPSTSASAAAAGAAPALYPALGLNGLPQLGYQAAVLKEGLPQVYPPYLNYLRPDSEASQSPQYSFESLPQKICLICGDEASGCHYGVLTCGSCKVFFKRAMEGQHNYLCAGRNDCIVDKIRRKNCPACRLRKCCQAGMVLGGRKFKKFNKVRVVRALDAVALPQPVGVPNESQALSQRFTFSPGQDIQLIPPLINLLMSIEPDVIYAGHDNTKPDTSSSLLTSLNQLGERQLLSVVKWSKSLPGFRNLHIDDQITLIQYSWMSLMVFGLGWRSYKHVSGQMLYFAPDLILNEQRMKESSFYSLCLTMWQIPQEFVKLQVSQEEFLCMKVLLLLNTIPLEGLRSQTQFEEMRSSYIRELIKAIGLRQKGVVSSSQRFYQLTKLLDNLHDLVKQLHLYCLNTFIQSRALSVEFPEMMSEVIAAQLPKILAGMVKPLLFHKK
- experiment_notes: Compound was tested for agonistic activity by cotransfection assay against human Progesterone receptor in CV-1 cells
- Type: functional, cell-based
pEC50: −log10 of the molar value.
measurement_name: pEC50

A selection of reference data follows.
C[C@H]1C(=O)C(C)(C)Nc2ccc3c(c21)[C@H](c1ccccc1)Oc1ccccc1-3    8.05
C[C@@H]1C(=O)C(C)(C)Nc2ccc3c(c21)[C@H](c1ccccc1)Oc1ccccc1-3    8.00
C[C@H]1C(=O)C(C)(C)Nc2ccc3c(c21)[C@H](c1cccc(F)c1)Oc1ccccc1-3    8.06

a: C[C@@H]1CC(C)(C)Nc2ccc3c(c21)[C@H](c1ccc(Cl)cc1)Oc1ccccc1-3
b: C[C@H]1C(=O)C(C)(C)Nc2ccc3c(c21)[C@H](c1cccc(C(F)(F)F)c1)Oc1ccccc1-3
Lab note: check whether a or b shows the higher recorded pEC50. Kindly give the label for the entry you pick.
b
